B1: Ankyrin-1, residues 1405 to 1484; numbered along this chain, P16157 (parent)
chain: MKMAVISEHLGLSWAELARELQFSVEDINRIRVENPNSLLEQSVALLNLWVIREGQNANMENLYTALQSIDRGEIVNMLE

Variants of: B1
Experiment: abundance fitness (aPCA) (normalised: wild type 0, dead -1); higher = more abundant; growth selection in yeast, the domain comes from the species named
Details: Homo sapiens
Experimental endpoint: abundance fitness
Kindly provide the number alone.

abundance fitness for MKMAVISEHLGLSWAELARELQFSREDINRIRVENPNSLLEQSVALLNLWVIREGQNANMENLYTALQSIDRGEIVNMLE [V25R] ?
-0.07

Return reported abundance fitness; argument: MKMAVISEHLGLSWAELARELQFSVEDINRIRVENPNSLLEQSVALLNLWVIREGQNANMENLYTALQSIDRGEIVNMRE [L79R]
-0.528

Quick one: abundance fitness for MKMAVISEHLGLSWAELARELQFSVEDINRIRVENPNSLLEQSVMLLNLWVIREGQNANMENLYTALQSIDRGEIVNMLE [A45M] ?
-0.173

Would you kindly share the measured abundance fitness for MKMAVISEHLGLSWAELARELQFSVEDIGRIRVENPNSLLEQSVALLNLWVIREGQNANMENLYTALQSIDRGEIVNMLE [N29G] ?
-0.133

Please report the recorded abundance fitness for MKMAVISEHLGLSWAELARELQFSVEDINRQRVENPNSLLEQSVALLNLWVIREGQNANMENLYTALQSIDRGEIVNMLE [I31Q] .
-0.712

Which abundance fitness value is on record for MKMAVISEHLGLSWAELARELQFSVEDINRIRVENPNSLLEQSVALLNLWVIREGQNANMENLYTALQHIDRGEIVNMLE [S69H] ?
0.342

# get_value(readout='abundance fitness', item= MKMAVISEHLGLSWAELARELQFGVEDINRIRVENPNSLLEQSVALLNLWVIREGQNANMENLYTALQSIDRGEIVNMLE [S24G] )
-0.23

Fill blank: measured abundance fitness of the variant MKMAVISEHLGLSWAELARELQFSVEDINRIRVENPNSLLEQSVALLNLWVIPEGQNANMENLYTALQSIDRGEIVNMLE [R53P] is ____.
-0.983

Which abundance fitness value is on record for MKMAVISEHLGLSWAELARELQFSVEDINRIRVENKNSLLEQSVALLNLWVIREGQNANMENLYTALQSIDRGEIVNMLE [P36K] ?
-0.267

Which measured abundance fitness value corresponds to MKMAVISEHLGLSWAELARELQFSVEDINRIRVENPNSLLEQSVALLNLWVIREGQNANMENLYTALQSILRGEIVNMLE [D71L] ?
-0.811

// query abundance fitness value for entry MKMAVISEHLGLSWAELARELQFSVEDINRIRVENPNSLLEQSVALLNLWVIREGQNANMENLYTALQSIDRGIIVNMLE [E74I]
-0.105

Given the entry MKMAVISEHLGLSWAELARELQFSVEDINRIRVENPNSLLEQSVALLNKWVIREGQNANMENLYTALQSIDRGEIVNMLE [L49K] , report its measured abundance fitness.
0.047

Find the recorded abundance fitness belonging to MKMAVISEHLGLSWAELARELQFSVEDINRIRVENPNSLLEQSVALLNLWVIREGQNQNMENLYTALQSIDRGEIVNMLE [A58Q] and report it.
-0.095

What does the data say about its abundance fitness? Entry: MKMAVISEHLGLSWAELARELQFSVEDINRIRVENPNSLLEMSVALLNLWVIREGQNANMENLYTALQSIDRGEIVNMLE [Q42M]
-0.172

Quick check: abundance fitness of MKMAVISEHLGLSWAELARELQFSVEDINRIRVENPNSLLEVSVALLNLWVIREGQNANMENLYTALQSIDRGEIVNMLE [Q42V] ?
-0.813

Please look up its abundance fitness: MKMAVISEHLGLSWAELARELQFSVEDINRIRVENPNSLLEQSVALLNLWVIREGQNANMENLYTALQSIDRGEIVNMLP [E80P]
0.049

Param item = MKMAVISEHLGLSWAELARELQFSVEDINRIRVENPNSLLEQSVALLNLWVIREGQNANMENLYTALQSIDRGEPVNMLE [I75P] ; retrieve measured abundance fitness.
-0.546

Find the recorded abundance fitness belonging to MKMAVISEHLGLSWAELARELQFSVEDINRIRVENPNSLLEQSVALLNLWVIREGQNANMENLYTALQSIDRGEEVNMLE [I75E] and report it.
-0.766

Which measured abundance fitness value corresponds to MKMAVISEHLGLSWAELARELQFSVEDINRIRWENPNSLLEQSVALLNLWVIREGQNANMENLYTALQSIDRGEIVNMLE [V33W] ?
-0.073

I have this variant here, MKMAVISEHLGLSWAELARELQFSVEDINRIRVENPNSLLEQSVALLNLWRIREGQNANMENLYTALQSIDRGEIVNMLE [V51R] , and I need its recorded abundance fitness.
0.065

Looking for the measured abundance fitness of MKMAVISEHLGLSWAELARELQFSVEDINRIRVENPNSLLEQSVALLNLWVIREGQNANMENLYTALQVIDRGEIVNMLE [S69V] , can you help?
0.029

Which abundance fitness is listed for MKMAVISEHLGLSWAELARELQFSVEDINRIRVENPNSLLEQSVALLNLWVIRCGQNANMENLYTALQSIDRGEIVNMLE [E54C] ?
-0.198

Reported abundance fitness for MKMAVISEHLGLSWAELARELQFSVEDINRIRVENPNSLLEQSVALLNLWVIREGQNANMEDLYTALQSIDRGEIVNMLE [N62D] : what is it?
0.109

Reported abundance fitness for MKMAVISEHLGLSWAELARELQFSVEDINRIRVENPNSLLEQSVNLLNLWVIREGQNANMENLYTALQSIDRGEIVNMLE [A45N] : what is it?
-0.226

What abundance fitness value was documented for this variant, MKMAVISEHLGLSWAELARELQFSVEDGNRIRVENPNSLLEQSVALLNLWVIREGQNANMENLYTALQSIDRGEIVNMLE [I28G] ?
-0.891

Which abundance fitness is reported for this variant? MKMAVISEHLGLSWAELARELQFSVEDINRIRVENPNSLLEQSRALLNLWVIREGQNANMENLYTALQSIDRGEIVNMLE [V44R]
0.181

Look up abundance fitness for this variant: MKMAVISEHLGLSWAELARELQFSVEDINRIRVENPNSLLEQSVALLNLWVIREGQNANMENLYTALFSIDRGEIVNMLE [Q68F]
-0.178

# query: abundance fitness of entry MKMAVISEHLGLSWAELARELQFSVEDINRIRVENPNSLLEQSVALLNLWVIREGQNANMENLYTATQSIDRGEIVNMLE [L67T]
-0.965

Name the recorded abundance fitness for MKMAVISEHLGLSWAELARELQFSVEDINRIRVENPNSLLEQSVALLNLWVIREGQNANMENLNTALQSIDRGEIVNMLE [Y64N] .
0.087

Reported abundance fitness for MKMAVISEHLGLSWAELARELQFSVEDINRIRVENPNSLLEQSVALVNLWVIREGQNANMENLYTALQSIDRGEIVNMLE [L47V] : what is it?
-0.308

Endpoint output: abundance fitness of MKMAVISEHLGLSWAELARELQFSVEDINRIRVENPNSLLEQSVALLNLWVIREGQNANMENLYTALQSIDRGEIENMLE [V76E] . Value?
-0.358

I would be grateful if you could share the reported abundance fitness for MKMAVISEHLGLSWAELARELQFSVEDINRIRVENPNSLLEQSVALLNLWVIREGQNANMENLYTALQCIDRGEIVNMLE [S69C] .
0.056

Looking for the measured abundance fitness of MKMAVISEHLGLSWAELARELQFSVEHINRIRVENPNSLLEQSVALLNLWVIREGQNANMENLYTALQSIDRGEIVNMLE [D27H] , can you help?
-0.121

Which abundance fitness reading was recorded for the variant MKMAVISEHLGLSWAELARELQFSVEDINRIRVENPNYLLEQSVALLNLWVIREGQNANMENLYTALQSIDRGEIVNMLE [S38Y] ?
-0.749

Looking for the measured abundance fitness of MKMAVISEHLGLSWAELARELQFSVEDINRIRVENPNSLLEQSVALLNLWGIREGQNANMENLYTALQSIDRGEIVNMLE [V51G] , can you help?
-0.001

Field request: abundance fitness | item: MKMAVISEHLGLSWAELARELQVSVEDINRIRVENPNSLLEQSVALLNLWVIREGQNANMENLYTALQSIDRGEIVNMLE [F23V]
-0.144

Return reported abundance fitness; argument: MKMAVISEHLGLSWAELARELQFSVEDINRIRVENENSLLEQSVALLNLWVIREGQNANMENLYTALQSIDRGEIVNMLE [P36E]
-0.066

Form field: reported abundance fitness of MKMAVISEHLGLSWAELARELQFSVEDINRIRVENPNSLLEQSVALLNLWVIREGENANMENLYTALQSIDRGEIVNMLE [Q56E]
0.055

For MKMAVISEHLGLSWAELARELQFSVEDINRIRVENPNSLLEQSVALLNLWVIREGQNGNMENLYTALQSIDRGEIVNMLE [A58G] , what is its reported abundance fitness?
0.038

Item MKMAVISEHLGLSWAELARELQFSVEDINRIRVENPNSLLEQSVALLNLWVIREGQLANMENLYTALQSIDRGEIVNMLE [N57L] has what recorded abundance fitness?
-0.108

Look up abundance fitness: MKMAVISEHLGLSWAELARELQFSVEDINRIRVEKPNSLLEQSVALLNLWVIREGQNANMENLYTALQSIDRGEIVNMLE [N35K]
-0.064

May I ask what abundance fitness has been recorded for MKMAVISEHLGLSWAELARELQISVEDINRIRVENPNSLLEQSVALLNLWVIREGQNANMENLYTALQSIDRGEIVNMLE [F23I] ?
0

Recorded abundance fitness of MKMAVISEHLGLSWAELARELQFSVEDENRIRVENPNSLLEQSVALLNLWVIREGQNANMENLYTALQSIDRGEIVNMLE [I28E] , please.
-0.627

Name the reported abundance fitness value associated with the variant MKMAVISEHLGLSWAELARELQFLVEDINRIRVENPNSLLEQSVALLNLWVIREGQNANMENLYTALQSIDRGEIVNMLE [S24L]
-0.776

Entry MKMAVISEHLGLSWAELARELQFSVEDINRIRVENPNSLLEQSVALYNLWVIREGQNANMENLYTALQSIDRGEIVNMLE [L47Y] has what abundance fitness?
-0.997

Entry MKMAVISEHLGLSWAELARELQFSVEDINRIRVENDNSLLEQSVALLNLWVIREGQNANMENLYTALQSIDRGEIVNMLE [P36D] : reported abundance fitness = ?
-0.165

Ref: the Human Domainome abundance scans (Beltran et al. 2025)
